This collection of values is drawn from patent US20150259344A1.

biological target: human α7 nAChR (Homo sapiens, UniProt P36544); construct: expressed in transfected cells; experiment: Evaluation of PAM activity with human α7 nACh receptor stably expressing cells (aequorin luminescence, FDSS7000); assay type: cell-based; settings: 10 μM test compound; ACh at EC20; ratio of RLU (Max-Min) to control wells; read-out: α7PAM (%) @10 μM
Sequence (P36544 23-502): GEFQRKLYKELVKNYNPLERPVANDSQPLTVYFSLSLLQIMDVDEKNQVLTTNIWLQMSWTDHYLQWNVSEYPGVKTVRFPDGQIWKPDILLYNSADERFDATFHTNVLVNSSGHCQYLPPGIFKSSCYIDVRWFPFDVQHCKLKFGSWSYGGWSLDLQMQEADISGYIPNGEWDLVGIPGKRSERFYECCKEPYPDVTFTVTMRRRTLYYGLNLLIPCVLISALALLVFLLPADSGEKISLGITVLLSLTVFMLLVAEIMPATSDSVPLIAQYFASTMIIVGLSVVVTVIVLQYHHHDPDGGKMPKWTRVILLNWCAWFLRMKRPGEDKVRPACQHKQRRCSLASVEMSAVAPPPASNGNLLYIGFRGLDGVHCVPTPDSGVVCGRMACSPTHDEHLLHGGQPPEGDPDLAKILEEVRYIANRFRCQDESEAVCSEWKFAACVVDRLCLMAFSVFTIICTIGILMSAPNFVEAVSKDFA
Result Type: activity at 10 µM

>>> assay_result("CC(C)(F)C(=O)N[C@H]1CC[C@@H](n2cnc(-c3ccccc3F)c2C#N)CC1 [Example 337]")
"492%"
>>> assay_result("N#Cc1c(-c2cc(F)ccc2F)ncn1[C@H]1CC[C@@H](C(=O)NC2CCOCC2)CC1 [Example 375]")
"457%"
>>> assay_result("CC(C)(F)C(=O)N[C@H]1CC[C@@H](n2cnc(-c3ccc(F)c(F)c3)c2C#N)CC1 [Example 342]")
"369%"
>>> assay_result("O=C(NC1CCC(F)(F)CC1)N1CCC(n2cnc(-c3ccc(OC(F)F)cc3)c2)CC1 [Example 60]")
"616%"
>>> assay_result("CC(C)(C)C(=O)N[C@H]1CC[C@@H](n2cnc(-c3ccc(OC(F)(F)F)cc3)c2Cl)CC1 [Example 321]")
"800%"
>>> assay_result("CC(C)(C)NC(=O)N1CCC(n2cnc(-c3ccccc3)c2C#N)CC1 [Example 100]")
"708%"
>>> assay_result("O=C(NC1CCC(F)(F)CC1)N1CCC(n2cnc(-c3cccc(F)c3)c2)CC1 [Example 32]")
"993%"
>>> assay_result("COc1cccc(-c2cn(C3CCN(C(=O)NC4CCCCC4)CC3)cn2)c1 [Example 71]")
"422%"
